System: MOLT-4 leukemia
PROTOCOL NOTES: NCI tumour cell line growth inhibition, 48 h
RECORDED ENDPOINT: TGI

Please state, for each entry, its recorded TGI.
1. CNC(=O)OCC1=C(COC(=O)NC)CN(c2ccc(OC)cc2)C1
2. COc1ccc(/C=N/C2=NNC(C)(c3ccccc3O)N2C(Cc2c[nH]c3ccccc23)C(=O)O)cc1 (stereo unspecified)
3. O=C(O)c1ccccc1C(=O)Nc1cc2c(cc1Br)-c1ccccc1C2=O
4. CCC12CN(C(=O)OC)C3C(Br)C1CCC(=O)C32 (stereo unspecified)
5. CN(C)c1ccc(C2=C([O-])c3cc(-[n+]4ccccc4)ccc3C2=O)cc1
6. CC(C)=CC1(C)/C(=N\O)C(C)(CC(C)C)C(=O)N1O (stereo unspecified)

> 100 µM
13.9 µM
> 100 µM
> 100 µM
> 100 µM
> 100 µM

* * *

Test system: SK-MEL-28 melanoma
PROTOCOL NOTES: NCI tumour cell line growth inhibition, 48 h
RECORDED ENDPOINT: TGI

# batch size: 5; output TGI per entry
1. COc1ccc(-n2nc(C(=O)c3ccccc3)c3nn4c(=O)cc(-c5ccccc5)nc4nc32)cc1
2. CC(C(=O)c1ccc(O)cc1)C1(O)C(=O)Nc2c(Cl)cc(Cl)cc21 (stereo not drawn)
3. NC1=C(/C(N)=N/O)C(c2ccccc2)c2ccc3ccccc3c2O1 (stereo not drawn)
4. CNC(=O)NCCCCC(NC(=O)OCc1ccccc1)C(=O)OCc1ccccc1 (stereo not drawn)
5. CC1(C)OC2C(O1)[C@H]1OC(C(Cl)(Cl)Cl)=N[C@H]1C(I)[C@H]2N1C(=O)c2ccccc2C1=O (stereo partly drawn)

> 100 µM
78.1 µM
51 µM
60.6 µM
> 100 µM

* * *

Record form. Attribute: TGI. Fill in for each entry.
Test system: M14 melanoma
PROTOCOL NOTES: NCI tumour cell line growth inhibition, 48 h

Previously resolved entries follow.
COc1cc2cc[n+](C)c(Cc3ccc(Oc4cc(Cc5c6cc(OC)c(OC)cc6cc[n+]5C)ccc4OC)cc3)c2cc1OC	> 100 µM
CCCCCCCCCCCCCCCCCCOC(COP(=O)(O)OCC1OC(n2cc(F)c(=O)[nH]c2=O)CC1O)COP(=O)(O)OCC1OC(n2ccc(N)nc2=O)C(O)C1O (stereo unspecified)	62.5 µM
N#CCc1nc(-c2cc3ccc(O)cc3oc2=O)cs1	> 100 µM
CCOC(=O)C1=C(Nc2cccc3ccccc23)OCC1=O	> 100 µM
Fc1c(F)c(F)c(CSc2nc3ccccc3[nH]2)c(F)c1F	> 100 µM

Now consider a different compound.
Under M14 melanoma: TGI value of O=[N+]([O-])c1ccc2nc(/C=C(\O)c3ccccc3)c(NC34CC5CC(CC(C5)C3)C4)nc2c1 ?
> 10 µM

* * *

Test system: MOLT-4 leukemia
PROTOCOL NOTES: NCI tumour cell line growth inhibition, 48 h
RECORDED ENDPOINT: TGI

C#C[C@@H](OC(=O)c1ccc([N+](=O)[O-])cc1)[C@@H]1C[C@H]2O[C@@H]([C@H](C/C=C/CC)OC(=O)c3ccc([N+](=O)[O-])cc3)C[C@H]2O1	> 100 µM
COc1ccc(C#CC2=C(Br)C(=O)OC2)cc1	> 50 µM
COC(=O)C(Cc1ccccc1)NP(=O)(O)OCC1OC(n2ccc(N)nc2=O)C(O)C1O (stereo not given)	> 100 µM
COc1cc(CO)cc2c1[nH]c1ccccc12	> 25 µM

Value lookup for TGI; key = CCSc1nnc(-c2ccc3ccccc3c2O)n1-c1ccccc1
> 100 µM

* * *

I'd be grateful if you could share measured TGI for these entries.
Tested on: MDA-N
PROTOCOL NOTES: NCI tumour cell line growth inhibition, 48 h

Use the examples below as a reference point.
CSc1ccc(NC(=O)CCl)cc1	> 10 µM
COc1ccc(-c2n[nH]c3nc4ccccc4n3c2=O)cc1	> 100 µM
c1cc2nnc1SCCSCCCSCCS2	> 100 µM
CC(CCCCNC(=O)OC(C)(C)C)NC(=O)NC(C)CCCCNC(=O)OC(C)(C)C (stereo not given)	> 100 µM

Now for another entry.
Request the reported TGI associated with Nc1ccc(Cc2ccc(N)c(C(=O)O)c2)cc1C(=O)O
> 100 µM

* * *

Assignment: determine reported TGI for the given molecules.
Tested on: OVCAR-4 ovarian
PROTOCOL NOTES: NCI tumour cell line growth inhibition, 48 h

O=C1NC(=O)C23C(=O)NC(=O)C12C1C=CC3CC1 (centres undefined)	> 10 µM

// for each molecule below, give its TGI
1. O=S(=O)(N1CCCCN(S(=O)(=O)C(F)(F)F)CCCN(S(=O)(=O)C(F)(F)F)CCCCN(S(=O)(=O)C(F)(F)F)CCCN(S(=O)(=O)C(F)(F)F)CCCCN(S(=O)(=O)C(F)(F)F)CCCN(S(=O)(=O)C(F)(F)F)CCCCN(S(=O)(=O)C(F)(F)F)CCC1)C(F)(F)F
2. CCOC1Oc2ccccc2-c2nc(N)ncc21 (centres undefined)
3. CN1CCN(c2ccc3nc(-c4ccc5nc(CCCc6ccc(N(CCCl)CCCl)cc6)[nH]c5c4)[nH]c3c2)CC1
4. COc1ccc(-n2nc(C(=O)NCC(=O)Nc3nc4cc(OC)ccc4s3)c3ccccc3c2=O)cc1
5. COc1ccc2cn3c4ccc(O)cc4[nH]c(=O)c3c2c1

1: > 100 µM; 2: > 100 µM; 3: > 100 µM; 4: 2.57 µM; 5: 23.3 µM

Each molecule below has a recorded value; state its TGI.
1. O=C(Cn1c2c(c3ccccc31)CCCC2)N1CCOCC1
2. O=C1c2ccccc2-c2c1c1ccc3ccccc3c1n2-c1ccccc1

1: > 100 µM; 2: > 100 µM

Please look up its TGI: CN(CCc1ccccn1)c1ccc2c(c1)Cc1ccccc1-2
97.7 µM

* * *

System: NCI-H460 lung
PROTOCOL NOTES: NCI tumour cell line growth inhibition, 48 h
RECORDED ENDPOINT: TGI

Record excerpt, results attached:
N#CC1=C(N)Oc2c(ccc3cccnc23)C1c1ccccc1 (centres undefined)	> 46.3 µM
C#C[C@]1(O)[C@@H](CO)O[C@@H](n2ccc(=O)[nH]c2=O)[C@@H]1O	> 100 µM
COc1cc2c3c(n(CCCN=[N+]=[N-])c(=O)c2cc1OC)-c1ccc(NC(C)=O)cc1C3=O	> 50 µM
CN1CCC(n2cnc(-c3ccc(F)cc3)c2-c2ccnc(Nc3ccccc3)n2)CC1	> 25 µM
Cc1c2ccccc2cc2cccc[n+]12	> 100 µM

I need TGI for every entry listed below, if you could help.
1. COc1ncc(-c2ccc3ncnc(Nc4cccc(Cl)c4)c3c2)cc1NS(C)(=O)=O
2. COc1ccccc1NC(=O)C1=C(C)NC(C)=C(C(=O)Nc2ccccc2OC)C1c1ccc(C2C(C(=O)Nc3ccccc3OC)=C(C)NC(C)=C2C(=O)Nc2ccccc2OC)cc1
3. CCOC(=O)/C(=C/c1ccccc1)N(CC)CC
4. COc1ccccc1CC1(O)OC(=O)c2ccccc21 (centres undefined)

["> 100 µM", "12.6 µM", "> 100 µM", "> 100 µM"]

* * *

Tested on: TK-10 renal
PROTOCOL NOTES: NCI tumour cell line growth inhibition, 48 h; in the data active means GI50 below about 0.43 µM; inactive means the rest
Hello, when you answer, please use one of the following outcomes: active, inactive

Look over these answered cases.
C=CC(=O)N1CCC(CNc2ncnc(N)c2-c2ccc(Oc3ccccc3)cc2)CC1	inactive
CN1CCC(n2cnc(-c3ccc(F)cc3)c2-c2ccnc(Nc3ccccc3)n2)CC1	inactive
COc1ccc(C#CC2=C(Br)C(=O)OC2)cc1	inactive
O=C1Nc2cc(-c3ccc(O)cc3)ccc2/C1=C/c1ccc[nH]1	active
Nc1n[nH]c2cc(F)c([C@@H]3Nc4c(F)cc5[nH]ncc5c4[C@H]4C5CCC(C5)[C@@H]34)cc12 (stereo not given in full)	inactive

Would you mind telling me which call this test gave COc1ccc(-n2nc(C(=O)NCC(=O)Nc3nc4cc(OC)ccc4s3)c3ccccc3c2=O)cc1 ?
active

Test call for this compound, please: C=CC(=O)OCCCS(=O)(=O)[O-].C=CC(=O)OCCCS(=O)(=O)[O-].NC1CCCCC1N.[Pt+4]
inactive

Per the assay record, what outcome was assigned to CS(=O)(=O)Nc1cccc(-c2ccc3ncnc(Nc4cncc(Cl)c4)c3c2)c1 ?
inactive

Recorded call for CCSc1nc(N)c(C#N)c(-c2ccc(OC)c(OC)c2)c1C#N ?
inactive

Just curious, what result did COc1ccc(C(=O)c2cc(C)c(OC)c(C)c2)c(OC)c1OC(=O)C(Cl)Cl get here?
inactive

* * *

Test system: OVCAR-3 ovarian
PROTOCOL NOTES: NCI tumour cell line growth inhibition, 48 h
RECORDED ENDPOINT: log10 TGI (log10 of the value in µM)
Values below are the log10 of the recorded TGI, with µM as the unit.

Here's what some known entries look like.
CN(CCN1C(=O)c2cccc3cccc(c23)C1=O)CCN1C(=O)c2cccc3cccc(c23)C1=O	1.87
C=C(CN(C)C)C(=O)c1ccccc1Cl	1.54
O=C(Oc1c(Cl)c(Cl)c(Cl)c(Cl)c1Cl)C1CCCN1C(=O)OCc1ccccc1 (stereo not given)	0.99
O=C(/C=C/c1ccc(O)c(O)c1)O[C@H]1CCCC[C@@H]1OC(=O)/C=C/c1ccc(O)c(O)c1	1.43
O=C(NN1CCCCC1)c1cc2cc(CCl)ccc2oc1=O	1.59

Let us move to another entry and its log10 TGI.
I am curious: what log10 TGI value has been reported for COC(=O)[C@]12CC[C@@H](C)[C@H](C)[C@@H]1C1=CC[C@@H]3[C@@]4(C)C(C=O)=C[C@@](C)(COC(=O)c5ccco5)C4=CC[C@@]3(C)[C@]1(C)CC2 ?
0.68
